# TGT: T1, rhCD73 bound to his-tag magnet beads (human, UniProt P21589 27-547, limits assumed)
# T1 sequence: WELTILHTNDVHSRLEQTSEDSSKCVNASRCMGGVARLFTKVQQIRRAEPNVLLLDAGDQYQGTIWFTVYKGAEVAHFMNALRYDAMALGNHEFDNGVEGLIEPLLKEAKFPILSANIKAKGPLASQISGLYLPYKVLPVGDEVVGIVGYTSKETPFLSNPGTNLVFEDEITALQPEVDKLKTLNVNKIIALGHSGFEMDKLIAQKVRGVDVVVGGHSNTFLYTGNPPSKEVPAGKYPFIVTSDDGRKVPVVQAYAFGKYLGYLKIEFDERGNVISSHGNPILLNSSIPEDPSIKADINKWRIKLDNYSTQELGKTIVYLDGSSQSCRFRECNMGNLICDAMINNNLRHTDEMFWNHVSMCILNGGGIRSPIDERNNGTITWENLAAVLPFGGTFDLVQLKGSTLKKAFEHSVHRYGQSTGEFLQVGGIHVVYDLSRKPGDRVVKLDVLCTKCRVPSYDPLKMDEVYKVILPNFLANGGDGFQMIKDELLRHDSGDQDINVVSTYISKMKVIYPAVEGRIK
# TEST NAME: cell-based or functional assay
MEASUREMENT LABEL: EC50 (nM), inhibition of bead-bound human CD73 enzymatic activity

BINDER	OBSERVED RESULT
24H2 (antibody, human IgG4, kappa, V domains shown, also called 24H2-1) VH: QVQLVESGGGVVQPGRSLRLSCAASGFTFSNYGMHWVRQAPGKGLEWVAVIWYDGGNKYYADSVKGRFTISRDNSKNTLFLQMNSLRAEDTAVYYCARGGSSWYPDAFDIWGQGTMVTVSS VL: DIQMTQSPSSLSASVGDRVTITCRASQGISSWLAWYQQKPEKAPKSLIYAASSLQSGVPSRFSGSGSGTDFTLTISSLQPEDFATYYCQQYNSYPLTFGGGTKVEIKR	4.18
5F8 (antibody, human IgG1, kappa, V domains shown, IgG1za; VK2 also expressed; also called 5F8-1) VH: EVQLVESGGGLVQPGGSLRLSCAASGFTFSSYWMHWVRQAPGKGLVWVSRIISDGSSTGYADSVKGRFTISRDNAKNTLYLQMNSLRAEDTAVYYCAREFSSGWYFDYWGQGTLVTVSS VL: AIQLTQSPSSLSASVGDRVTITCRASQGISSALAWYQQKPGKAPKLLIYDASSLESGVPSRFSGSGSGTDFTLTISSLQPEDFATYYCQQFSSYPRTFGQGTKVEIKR	5.76
10D2 (antibody, human IgG4, kappa, V domains shown, also called 10D2-2) VH: QVQLVESGGGVVQPGRSLRLSCAASGFTFSNYGLHWVRQAPGKGLEWVAVIRYDGSNKYYADSVKGRFTISRDNSKNTLYLQMSSLRAEDTAVYYCARGGSSWYPDGLDVWGQGTTVTVSS VL: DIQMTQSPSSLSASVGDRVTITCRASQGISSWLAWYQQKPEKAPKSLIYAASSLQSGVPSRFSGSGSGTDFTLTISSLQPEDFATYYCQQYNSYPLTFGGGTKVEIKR	6.94
7A11 (antibody, human IgG1, kappa, V domains shown, IgG1za; also called 7A11-1) VH: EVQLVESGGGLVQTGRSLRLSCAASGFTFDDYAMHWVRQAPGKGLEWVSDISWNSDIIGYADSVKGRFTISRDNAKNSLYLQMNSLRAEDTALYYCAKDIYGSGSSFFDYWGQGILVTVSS VL: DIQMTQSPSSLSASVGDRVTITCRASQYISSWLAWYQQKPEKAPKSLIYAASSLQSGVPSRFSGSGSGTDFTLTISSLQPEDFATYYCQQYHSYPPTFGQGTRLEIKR	2.86
